Items are presented alongside their recorded perc_recovery_a_to_b_mean.
test: Permeability Papp (AB) MDR1/MDCKII; conditions: In vitro MDR1-MDCKII permeability, recovery A to B, no inhibitor
Return type: number; implicit unit %.

- Cc1nn(C)cc1-c1cc2c(NC(c3ccc4c(c3)S(=O)(=O)CCC4)C(C)C)ncnc2[nH]1 (centres unmarked) [ASAP-0011446]: 69.7
- CNC(=O)c1cc2c(N[C@H](c3ccc4c(c3)S(=O)(=O)CCC4)C(C)C)ncnc2[nH]1 (single isomer, unassigned) [ASAP-0012340]: 74.2
- CC(C)[C@@H](Nc1ncnc2[nH]c(-c3cnn(CC(=O)N(C)C)c3)cc12)c1ccc2c(c1)S(=O)(=O)CCC2 [ASAP-0013747]: 78.8
- CC(C)[C@@H](Nc1ncnc2[nH]c(-c3cnn(C)c3C#N)cc12)c1ccc2c(c1)OCCO2 [ASAP-0011033]: 31.2
- CNC(=O)c1cccc(-c2cc3c(N[C@H](c4ccc5c(c4)S(=O)(=O)CCC5)C(C)C)ncnc3[nH]2)c1 (single isomer, unassigned) [ASAP-0012338]: 61.5
- CCNC(=O)c1cc2c(N[C@H](c3ccc4c(c3)OCCO4)C(C)C)ncnc2[nH]1 [ASAP-0013824]: 94.3
- CC(C)[C@H](Nc1ncnc2[nH]c(-c3cnn(CC(=O)N(C)C)c3)cc12)c1ccc2c(c1)OCCO2 (single isomer, unassigned) [ASAP-0013833]: 82.0
- CC(C)[C@H](Nc1ncnc2[nH]c(-c3cnn(C)c3C#N)cc12)c1ccc2c(n1)NC(=O)CO2 (single isomer, unassigned) [ASAP-0011177]: 69.4

Ask | Look up perc_recovery_a_to_b_mean for this compound: COc1ccc(C(NC(=O)c2ncnc3[nH]ccc23)C(C)c2nnn[nH]2)cc1 (mixture of isomers) [ASAP-0010744]
Reply | 93.6

Ask | Check CCNC(=O)c1cc2c(N[C@H](c3ccc4c(c3)S(=O)(=O)CCC4)C(C)C)ncnc2[nH]1 [ASAP-0012325] too.
Reply | 88.3

Ask | Check CC(C)[C@H](Nc1ncnc2[nH]c(-c3cnn(CC(=O)N(C)C)c3)cc12)c1ccc2c(c1)OCCO2 (single isomer, unassigned) [ASAP-0013837] too.
Reply | 87.9

Ask | Check CC(C)[C@H](Nc1ncnc2[nH]c(-c3cnn(CC(=O)N(C)C)c3)cc12)c1ccc2c(c1)S(=O)(=O)CCC2 [ASAP-0013744] too.
Reply | 116.0

Ask | Check CC(C)[C@@H](Nc1ncnc2[nH]c(-c3ccc4cncn4c3)cc12)c1ccc2c(c1)S(=O)(=O)CCC2 [ASAP-0011215] too.
Reply | 70.8

---

Items are presented alongside their recorded perc_recovery_a_to_b_mean.
assay: Permeability Papp (AB) MDR1/MDCKII; conditions: In vitro MDR1-MDCKII permeability, recovery A to B, mean
Return type: number; implicit unit %.

Ask | Look up perc_recovery_a_to_b_mean for this compound: COc1ccc([C@@H](Cc2nnn[nH]2)NC(=O)c2ncnc3[nH]ccc23)cc1 [ASAP-0008340]
Reply | 89.1

Ask | Check CNC(=O)c1c[nH]c2ncnc(N[C@@H](c3ccc4c(c3)OCCO4)C(C)C)c12 [ASAP-0008406] too.
Reply | 92.4

Ask | Check CC(C)[C@@H](Nc1ncnc2[nH]c(-c3cnn(CC(N)=O)c3)cc12)c1ccc2c(c1)OCCO2 [ASAP-0008288] too.
Reply | 89.0

The reported numbers originate from paper doi:10.1101/2024.08.19.608619.
